These measurements were taken from patent US12275684B2.

- assay: Placebo controlled, dose escalation pharmacokinetic study of oral (Z)-Endoxifen capsules (serum endoxifen; incl. accumulation ratios and dose linearity)
- Type: in vivo, human
- measurement_parameters: female, human, serum, po, 4 mg, Day 1; dose 4 mg oral; Median, N 6; read-out: Cmax

# compound, Cmax / ng/mL
rows = [
    ("CC/C(=C(\\c1ccc(O)cc1)c1ccc(OCCNC)cc1)c1ccccc1 [(Z)-Endoxifen]", 29.5),
]

====

- assay: Placebo controlled, dose escalation pharmacokinetic study of oral (Z)-Endoxifen capsules (serum endoxifen; incl. accumulation ratios and dose linearity)
- Assay type: in vivo, human
- measurement_parameters: female, human, serum, po, 4 mg/day, Day 1; 4 mg/day oral (n = 6); read-out: AUC24 hr, Arithmetic Mean

# molecule, unit_abbreviation, AUC(0-t)
records = [
    ("CC/C(=C(\\c1ccc(O)cc1)c1ccc(OCCNC)cc1)c1ccccc1 [(Z)-Endoxifen]", "ng·h/mL", 587),
]

====

- assay: Placebo controlled, dose escalation pharmacokinetic study of oral (Z)-Endoxifen capsules (serum endoxifen; incl. accumulation ratios and dose linearity)
- Assay type: in vivo, human
- measurement_parameters: female, human, serum, oral, 2 mg, Day 1; 2 mg; N 6; read-out: Cmax, Mean

# molecule, Cmax (ng/mL)
measured = [
    ("CC/C(=C(\\c1ccc(O)cc1)c1ccc(OCCNC)cc1)c1ccccc1 [(Z)-Endoxifen]", 17.7),
]

====

- assay: Placebo controlled, dose escalation pharmacokinetic study of oral (Z)-Endoxifen capsules (serum endoxifen; incl. accumulation ratios and dose linearity)
- Assay type: in vivo, human
- measurement_parameters: female, human, serum, oral, 1 mg, Day 1; 1 mg; N = 5; read-out: Vz/F, GeoMean

# compound, Vd/F
rows = [
    ("CC/C(=C(\\c1ccc(O)cc1)c1ccc(OCCNC)cc1)c1ccccc1 [(Z)-Endoxifen]", "118 L"),
]

====

- assay: Placebo controlled, dose escalation pharmacokinetic study of oral (Z)-Endoxifen capsules (serum endoxifen; incl. accumulation ratios and dose linearity)
- Type: in vivo, human
- measurement_parameters: female, human, serum, po, 4 mg, Day 21; dose 4 mg oral once daily; GeoMean, N 6; read-out: AUC24hr
measurement_label: AUC(0-t) (ng·h/mL)

# molecule, measurement_label, quantitative_readout
data = [
    ("CC/C(=C(\\c1ccc(O)cc1)c1ccc(OCCNC)cc1)c1ccccc1 [(Z)-Endoxifen]", "AUC(0-t)", 1740),
]

====

- assay: Placebo controlled, dose escalation pharmacokinetic study of oral (Z)-Endoxifen capsules (serum endoxifen; incl. accumulation ratios and dose linearity)
- Assay type: in vivo, human
- measurement_parameters: female, human, serum, oral, 1 mg, Day 21; 1 mg; N = 5; read-out: AUC24hr, GeoMean

# compound, AUC(0-t) [ng·h/mL]
measured = [
    ("CC/C(=C(\\c1ccc(O)cc1)c1ccc(OCCNC)cc1)c1ccccc1 [(Z)-Endoxifen]", 431),
]

====

- assay: Placebo controlled, dose escalation pharmacokinetic study of oral (Z)-Endoxifen capsules (serum endoxifen; incl. accumulation ratios and dose linearity)
- Format: in vivo, human
- measurement_parameters: female, human, serum, po, 2 mg, Day 21; dose 2 mg oral once daily; Mean, N 6; read-out: volume of distribution (Vd/F)

# molecule, unit_abbreviation, Vd/F
records = [
    ("CC/C(=C(\\c1ccc(O)cc1)c1ccc(OCCNC)cc1)c1ccccc1 [(Z)-Endoxifen]", "L", 139),
]
